Target or system D(3) dopamine receptor (Homo sapiens): recorded AC50 listed per item. Further: assay procedure not described here.

Consider the following illustrative entries.
C[C@H]1Oc2cc(cnc2N)-c2c(nn(C)c2C#N)CN(C)C(=O)c2ccc(F)cc21 = > 30 µM
C[n+]1ccccc1/C=N/O = > 30 µM
CC1(C)C(C=C(Cl)Cl)C1C(=O)OCc1cccc(Oc2ccccc2)c1 (stereo unspecified) = > 30 µM

Asked: What does the data say about its AC50? Entry: `CC(C)N(CCCCOCC(=O)NS(C)(=O)=O)c1cnc(-c2ccccc2)c(-c2ccccc2)n1`
Given back: > 30 µM

---

Target or system Histamine H3 receptor (Homo sapiens, UniProt Q9Y5N1): recorded AC50 listed per item. Further: assay procedure not described here.

Consider the following illustrative entries.
CO/N=C(\C(=O)N[C@@H]1C(=O)N2C(C(=O)O)=C(COC(N)=O)CS[C@H]12)c1ccco1 = > 30 µM
O=C(O)c1cc(O)c2c3nc4ccccc4oc-3cc(=O)c2n1 = > 30 µM
CN1[C@@H]2CC[C@H]1C[C@@H](OC(=O)c1c[nH]c3ccccc13)C2 = > 30 µM
CC(=O)S[C@@H]1CC2=CC(=O)CC[C@]2(C)[C@H]2CC[C@@]3(C)[C@@H](CC[C@@]34CCC(=O)O4)[C@H]12 = > 30 µM
C#C[C@]1(O)CC[C@H]2[C@@H]3CCC4=CC(=O)CCC4=C3C=C[C@@]21CC = > 30 µM
COCCCOc1ccnc(C[S+]([O-])c2nc3ccccc3[nH]2)c1C (stereo not drawn) = > 10 µM

Asked: Hello, I am looking for reported AC50 with Histamine H3 receptor (Homo sapiens, UniProt Q9Y5N1) for `Cc1ccc(=O)n(-c2ccccc2)c1` . Could you help?
Given back: > 30 µM

Asked: How about this compound: `NC(=O)c1ncn([C@@H]2O[C@H](CO)[C@@H](O)[C@H]2O)n1`
Given back: > 10 µM

Asked: How about this compound: `COC1=C(OC)C(=O)C(CCCCCCCCCCO)=C(C)C1=O`
Given back: > 10 µM

Asked: How about this compound: `C=C(C)[C@@H]1CCC(C)=C[C@H]1c1c(O)cc(CCCCC)cc1O`
Given back: 26 µM

Asked: How about this compound: Clc1ccc(C(Cn2ccnc2)OCc2ccc(Sc3ccccc3)cc2)c(Cl)c1 (stereo not drawn)
Given back: > 30 µM

Asked: How about this compound: `C[C@H]1Oc2cc(cnc2N)-c2c(nn(C)c2C#N)CN(C)C(=O)c2ccc(F)cc21`
Given back: > 30 µM
